Ref: patent US20050203151A1

Below, each entry is listed with its recorded pEC50.
EXPERIMENTAL_TARGET: PPAR-gamma (Homo sapiens, UniProt P37231)
Construct: expressed in transfected cells; host or cells: CV-1 cells
Sequence (P37231 238-503 limits assumed): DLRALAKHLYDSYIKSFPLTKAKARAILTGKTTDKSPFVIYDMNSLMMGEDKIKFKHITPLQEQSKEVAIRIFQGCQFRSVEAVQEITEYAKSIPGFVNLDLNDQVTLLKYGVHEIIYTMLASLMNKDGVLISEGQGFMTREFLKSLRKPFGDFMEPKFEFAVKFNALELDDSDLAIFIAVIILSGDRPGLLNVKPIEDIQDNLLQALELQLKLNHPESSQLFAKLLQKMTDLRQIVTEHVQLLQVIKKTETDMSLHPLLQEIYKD
TEST_NAME: human PPAR-GAL4 chimera luciferase reporter assay in CV-1 cells, PPAR-gamma
Assay type: cell-based
STATED_CONDITIONS: Table 2, Examples 1-10, read-out: PPAR γ EC50
pEC50: −log10 of the molar value.
MEASURED_METRIC: pEC50

>>> obs_value("Cc1nc(-c2ccc(C(F)(F)F)cc2)sc1COc1cccc2ccn(CC(=O)O)c12")
"< 5.00"
>>> obs_value("Cc1nc(-c2ccc(C(F)(F)F)cc2)sc1Cn1ccc2cc(C(=O)O)ccc21")
"< 5.00"
>>> obs_value("Cc1nc(-c2ccc(C(F)(F)F)cc2)sc1Cn1cc(C(=O)O)c2ccccc21")
"< 5.00"
>>> obs_value("Cc1nc(-c2ccc(C(F)(F)F)cc2)sc1COc1cccc(CC(=O)O)c1")
"5.00 to 6.00"
>>> obs_value("Cc1nc(-c2ccc(C(F)(F)F)cc2)sc1COc1cccc2c1ccn2CC(=O)O")
"5.00 to 6.00"
>>> obs_value("Cc1nc(-c2ccc(C(F)(F)F)cc2)sc1CSc1cccc(CC(=O)O)c1")
"5.00 to 6.00"
>>> obs_value("Cc1nc(-c2ccc(C(F)(F)F)cc2)sc1COc1ccc2ccn(CC(=O)O)c2c1")
"5.00 to 6.00"
>>> obs_value("Cc1nc(-c2ccc(C(F)(F)F)cc2)sc1COc1ccc2[nH]cc(CC(=O)O)c2c1")
"> 6.00"
>>> obs_value("Cc1nc(-c2ccc(C(F)(F)F)cc2)sc1COc1ccc2c(ccn2CC(=O)O)c1")
"< 5.00"
>>> obs_value("Cc1nc(-c2ccc(C(F)(F)F)cc2)sc1Cn1ccc2c(C(=O)O)cccc21")
"< 5.00"
